Entries and their viability, T/C
tested on: 817829-284-R-J1-PDC complex spheroids, viability; assay: Anticancer human tumor 817829-284-R-J1-PDC patient-derived colon adenocarcinoma cell line growth inhibition [GQUAD]; details: second compound 0.0316 µM; first compound 3.16 µM; stronger effect = lower value
property_name: viability, T/C (%)

* COc1cccc2c1C(=O)c1c(O)c3c(c(O)c1C2=O)CC(O)(C(=O)CO)CC3OC1CC(N)C(O)C(C)O1 (stereo not drawn) + Cc1[nH]c2ccc(F)cc2c1-c1nc2c3cccnc3c3ncccc3c2[nH]1 | 0.98
* COc1ncnc(C2CC2)c1-c1ncc2cnn(Cc3ccc(-c4nc(C(F)(F)F)cn4C(C)C)cc3)c2n1 + Cc1[nH]c2ccc(F)cc2c1-c1nc2c3cccnc3c3ncccc3c2[nH]1 | 113
* Nc1ccn(C2OC(CO)C(O)C2(F)F)c(=O)n1 (stereo not drawn) + Cc1[nH]c2ccc(F)cc2c1-c1nc2c3cccnc3c3ncccc3c2[nH]1 | 5.53
* COc1ccc([C@@H](O)c2cc(-c3ncnc4cc(N5CCOCC5)ccc34)c(F)cc2Cl)nn1 + CN(C)c1ccc(Nc2c3ccc(NC(=O)CCN4CCCC4)cc3nc3cc(NC(=O)CCN4CCCC4)ccc23)cc1 | 88
* CC1COCCN1c1cc(-c2ccnn2C)c2ccnc(-c3ccn[nH]3)c2n1 (stereo not drawn) + Cc1[nH]c2ccc(F)cc2c1-c1nc2c3cccnc3c3ncccc3c2[nH]1 | 6.02
* CC1COCCN1c1cc(C2(S(C)(=N)=O)CC2)nc(-c2ccnc3[nH]ccc23)n1 (stereo not drawn) + CN(C)c1ccc(Nc2c3ccc(NC(=O)CCN4CCCC4)cc3nc3cc(NC(=O)CCN4CCCC4)ccc23)cc1 | 11.2
* COc1cc(C2c3cc4c(cc3C(OC3OC5COC(C)OC5C(O)C3O)C3COC(=O)C23)OCO4)cc(OC)c1O (stereo not drawn) + Cc1[nH]c2ccc(F)cc2c1-c1nc2c3cccnc3c3ncccc3c2[nH]1 | 28.1
* CCCS(=O)(=O)Nc1ccc(F)c(C(=O)c2c[nH]c3ncc(-c4ccc(Cl)cc4)cc23)c1F + CN(C)c1ccc(Nc2c3ccc(NC(=O)CCN4CCCC4)cc3nc3cc(NC(=O)CCN4CCCC4)ccc23)cc1 | 80.8

----------
tested on: 817829-284-R-J1-PDC complex spheroids, viability; assay: Anticancer human tumor 817829-284-R-J1-PDC cell line growth inhibition [GQUAD]; details: second compound 0.0316 µM; first compound 0.0316 µM; stronger effect = lower value;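 also: spheroids exposed to agents for 7 days before readout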;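 as to viability, T/C: percent viability relative to DMSO vehicle control taken as 100%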
property_name: viability, T/C

- C=CCn1c(=O)c2cnc(Nc3ccc(N4CCN(C)CC4)cc3)nc2n1-c1cccc(C(C)(C)O)n1 + Cc1[nH]c2ccc(F)cc2c1-c1nc2c3cccnc3c3ncccc3c2[nH]1: 101%
- CC1COCCN1c1cc(-c2ccnn2C)c2ccnc(-c3ccn[nH]3)c2n1 (stereo not drawn) + Cc1cnc(CNC(=O)c2c(=O)c3ccc(N4CCCN(C)CC4)nc3n3c2sc2ccccc23)cn1: 14.8%
- CC(=O)O[C@H]1C(=O)[C@@]2(C)[C@H]([C@H](OC(=O)c3ccccc3)[C@]3(O)C[C@H](OC(=O)[C@H](O)[C@@H](NC(=O)c4ccccc4)c4ccccc4)C(C)=C1C3(C)C)[C@]1(OC(C)=O)CO[C@@H]1C[C@@H]2O + CN(C)c1ccc(Nc2c3ccc(NC(=O)CCN4CCCC4)cc3nc3cc(NC(=O)CCN4CCCC4)ccc23)cc1: 10.1%

----------
test system: 817829-284-R-J1-PDC complex spheroids, viability; assay: Anticancer human tumor 817829-284-R-J1-PDC cell line growth inhibition [GQUAD]; details: curve of first compound; second compound 10 µM;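 also: spheroids exposed to agents for 7 days before readout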
pIC50: −log10 of the molar value.
property_name: pIC50

• CC(C)(O)C1CCC(Nc2ccc3ncc(-c4cccc(C(F)(F)F)c4)n3n2)CC1 (stereo not given) + CN(C)c1ccc(Nc2c3ccc(NC(=O)CCN4CCCC4)cc3nc3cc(NC(=O)CCN4CCCC4)ccc23)cc1 = 5.93
• O=C(NO)c1cnc(N2CCN(S(=O)(=O)c3ccc4ccccc4c3)CC2)nc1 + CN(C)c1ccc(Nc2c3ccc(NC(=O)CCN4CCCC4)cc3nc3cc(NC(=O)CCN4CCCC4)ccc23)cc1 = 7.08

----------
Entries and their viability, T/C
tested on: 817829-284-R-J1-PDC complex spheroids, viability; assay: Anticancer human tumor 817829-284-R-J1-PDC cell line growth inhibition [GQUAD]; conditions: second compound 0.0316 µM; first compound 3.16 µM; stronger effect = lower value;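 also: spheroids exposed to agents for 7 days before readout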;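 as to viability, T/C: percent viability relative to DMSO vehicle control taken as 100%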
property_name: viability, T/C (%)

• CC(C)(O)C1CCC(Nc2ccc3ncc(-c4cccc(C(F)(F)F)c4)n3n2)CC1 (stereo not given) + Cc1cnc(CNC(=O)c2c(=O)c3ccc(N4CCCN(C)CC4)nc3n3c2sc2ccccc23)cn1 = 5.43
• COc1cccc2c1C(=O)c1c(O)c3c(c(O)c1C2=O)CC(O)(C(=O)CO)CC3OC1CC(N)C(O)C(C)O1 (stereo not given) + Cc1cnc(CNC(=O)c2c(=O)c3ccc(N4CCCN(C)CC4)nc3n3c2sc2ccccc23)cn1 = 0.23
• Nc1ccn(C2OC(CO)C(O)C2(F)F)c(=O)n1 (stereo not given) + CN(C)c1ccc(Nc2c3ccc(NC(=O)CCN4CCCC4)cc3nc3cc(NC(=O)CCN4CCCC4)ccc23)cc1 = 5.22
• COc1cc(C2c3cc4c(cc3C(OC3OC5COC(C)OC5C(O)C3O)C3COC(=O)C23)OCO4)cc(OC)c1O (stereo not given) + Cc1cnc(CNC(=O)c2c(=O)c3ccc(N4CCCN(C)CC4)nc3n3c2sc2ccccc23)cn1 = 15.1
• CC1COCCN1c1cc(-c2ccnn2C)c2ccnc(-c3ccn[nH]3)c2n1 (stereo not given) + CN(C)c1ccc(Nc2c3ccc(NC(=O)CCN4CCCC4)cc3nc3cc(NC(=O)CCN4CCCC4)ccc23)cc1 = 6.76

----------
Test system: 817829-284-R-J1-PDC complex spheroids, viability
Assay: Anticancer human tumor 817829-284-R-J1-PDC cell line growth inhibition [GQUAD];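 also: spheroids exposed to agents for 7 days before readout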;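 as to viability, T/C: percent viability relative to DMSO vehicle control taken as 100%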
Conditions: second compound 0.0316 µM; first compound 0.0316 µM; stronger effect = lower value
Text: DNA G-quadruplex Stabilizer Agents in Combinations in Complex Spheroids A high-throughput screen of multi-cell type tumor spheroids was designed to identify active combinations of DNA G-quadruplex stabilizer agents and targeted small molecules. […] Compounds. […] If the clinical Cmax for an agent had not been determined, the highest concentration tested was 10 microM. […]
For each record, check the reported viability, T/C: if it is below 90% write Met, else write Not met.

- CC1COCCN1c1cc(-c2ccnn2C)c2ccnc(-c3ccn[nH]3)c2n1 (stereo unspecified) + CN(C)c1ccc(Nc2c3ccc(NC(=O)CCN4CCCC4)cc3nc3cc(NC(=O)CCN4CCCC4)ccc23)cc1: Met
- O=C(NO)c1cnc(N2CCN(S(=O)(=O)c3ccc4ccccc4c3)CC2)nc1 + CN(C)c1ccc(Nc2c3ccc(NC(=O)CCN4CCCC4)cc3nc3cc(NC(=O)CCN4CCCC4)ccc23)cc1: Not met
- Cc1[nH]c2ccccc2c1CCNCc1ccc(/C=C/C(=O)NO)cc1 + CN(C)c1ccc(Nc2c3ccc(NC(=O)CCN4CCCC4)cc3nc3cc(NC(=O)CCN4CCCC4)ccc23)cc1: Met
- COc1ccc([C@@H](O)c2cc(-c3ncnc4cc(N5CCOCC5)ccc34)c(F)cc2Cl)nn1 + CN(C)c1ccc(Nc2c3ccc(NC(=O)CCN4CCCC4)cc3nc3cc(NC(=O)CCN4CCCC4)ccc23)cc1: Not met
- CC1COCCN1c1cc(-c2ccnn2C)c2ccnc(-c3ccn[nH]3)c2n1 (stereo unspecified) + Cc1[nH]c2ccc(F)cc2c1-c1nc2c3cccnc3c3ncccc3c2[nH]1: Met
- C=CCn1c(=O)c2cnc(Nc3ccc(N4CCN(C)CC4)cc3)nc2n1-c1cccc(C(C)(C)O)n1 + Cc1cnc(CNC(=O)c2c(=O)c3ccc(N4CCCN(C)CC4)nc3n3c2sc2ccccc23)cn1: Met
- CCc1c2c(nc3ccc(O)cc13)-c1cc3c(c(=O)n1C2)COC(=O)[C@]3(O)CC + CN(C)c1ccc(Nc2c3ccc(NC(=O)CCN4CCCC4)cc3nc3cc(NC(=O)CCN4CCCC4)ccc23)cc1: Met
- Cn1ncnc1[C@H]1c2n[nH]c(=O)c3cc(F)cc(c23)N[C@@H]1c1ccc(F)cc1 + Cc1cnc(CNC(=O)c2c(=O)c3ccc(N4CCCN(C)CC4)nc3n3c2sc2ccccc23)cn1: Met
- CCCS(=O)(=O)Nc1ccc(F)c(C(=O)c2c[nH]c3ncc(-c4ccc(Cl)cc4)cc23)c1F + CN(C)c1ccc(Nc2c3ccc(NC(=O)CCN4CCCC4)cc3nc3cc(NC(=O)CCN4CCCC4)ccc23)cc1: Not met

----------
test system: 817829-284-R-J1-PDC complex spheroids, viability; assay: Anticancer human tumor 817829-284-R-J1-PDC cell line growth inhibition [GQUAD]; conditions: second compound 0.0316 µM; first compound 0.0316 µM; stronger effect = lower value;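 also: spheroids exposed to agents for 7 days before readout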;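 as to viability, T/C: percent viability relative to DMSO vehicle control taken as 100%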
Entries and their viability, T/C
property_name: viability, T/C (%)

- C=CC(=O)N1CCN(c2nc(=O)n(-c3c(C)ccnc3C(C)C)c3nc(-c4c(O)cccc4F)c(F)cc23)C(C)C1 (stereo not given) + Cc1[nH]c2ccc(F)cc2c1-c1nc2c3cccnc3c3ncccc3c2[nH]1: 106
- CC1COCCN1c1cc(C2(O)CC3CCC(C2)O3)c2cnn(-c3ccn[nH]3)c2n1 (stereo not given) + Cc1[nH]c2ccc(F)cc2c1-c1nc2c3cccnc3c3ncccc3c2[nH]1: 40.4
- C=CC(=O)N1CCN(c2nc(=O)n(-c3c(C)ccnc3C(C)C)c3nc(-c4c(O)cccc4F)c(F)cc23)C(C)C1 (stereo not given) + CN(C)c1ccc(Nc2c3ccc(NC(=O)CCN4CCCC4)cc3nc3cc(NC(=O)CCN4CCCC4)ccc23)cc1: 101
- CCCS(=O)(=O)Nc1ccc(F)c(C(=O)c2c[nH]c3ncc(-c4ccc(Cl)cc4)cc23)c1F + Cc1cnc(CNC(=O)c2c(=O)c3ccc(N4CCCN(C)CC4)nc3n3c2sc2ccccc23)cn1: 57.4
- COc1cccc2c1C(=O)c1c(O)c3c(c(O)c1C2=O)CC(O)(C(=O)CO)CC3OC1CC(N)C(O)C(C)O1 (stereo not given) + Cc1[nH]c2ccc(F)cc2c1-c1nc2c3cccnc3c3ncccc3c2[nH]1: 106
